Values were extracted from PubChem BioAssay (NCI).

Test system: SK-MEL-28 melanoma
assay-summary: NCI-60 one-dose screen, 48 h
measurement-conditions: 10 µM unless noted
About 83,000 compounds went through this panel and 20% of them were active in at least one assay; those are over-represented in the sample as a whole. Activity calls are given as the source filed them. Rule for the calls: active = growth percent below 10; inactive = the rest.
Outcomes you can answer with include only these: yes (1) for active, no (0) for inactive

Consider the worked cases shown below.
COc1ccc(C(=O)COc2cccc(/C=C3\CSc4ccc(Cl)cc4C3=O)c2)cc1 | no (0)
CCC(C)C1NC(=O)C(CCNCS(=O)(=O)O)NC(=O)C(NC(=O)C(CCNCS(=O)(=O)O)NC(=O)C(NC(=O)C(CCNCS(=O)(=O)O)NC(=O)CCCCC(C)C)C(C)O)CCNC(=O)C(C(C)O)NC(=O)C(CCNCS(=O)(=O)O)NC(=O)C(CCNCS(=O)(=O)O)NC(=O)C(C(C)CC)NC1=O (stereo not drawn) | no (0)
O=C1/C(=C/c2cccc(Cl)c2)CCc2ccccc21 | no (0)
N#Cc1c(-c2ccccc2)cc(-c2ccccc2)n(CCCCCCC(=O)O)c1=O | no (0)
COC(=O)C1CCN(S(=O)(=O)c2ccc(-c3ccccc3)cc2)CC1 | no (0)
N#CC(C#N)C(C#N)C#N | no (0)
Cn1c(N2N=C(c3ccc(Cl)cc3)CC2c2ccccc2)nc(-c2ccccc2)c(C#N)c1=O (stereo not drawn) | no (0)

For the next question, use this molecule.
Query block: Answer briefly: the call reported for CC[C@H]1CN2CCc3cc(OC)c(OC)cc3C2C[C@@H]1CC1NCCc2cc(OC)c(OC)cc21 (stereo partly drawn) in this assay.
Result block: yes (1)

---

Listing: growth of selected molecules
Test system: HOP-62 NSCLC
assay-summary: NCI-60 one-dose screen, 48 h (100 = growth as untreated, 0 = no growth, -100 = all killed)
measurement-conditions: 10 µM unless noted
This is part of a sample that, as a whole, favours compounds with a hit. Of some 83,000 tested, about 20% had one in any assay.
# output: bare number, implied unit %

Below: 6 molecules and their reported growth.
O=C1NC(=O)/C(=C/c2ccc(Cl)cc2Cl)N1 | 99.1
Cn1c(=O)c2[nH]c(=S)n(Cc3ccccc3)c2n(C)c1=O | 70
CCN1CC2=C(Nc3nc(SC)[nH]c(=O)c3C2c2cc(OC)c(OC)c(OC)c2)/C(=C/c2cc(OC)c(OC)c(OC)c2)C1 (configuration not stated) | 104
O=C1C=CC(=O)N1c1ccccn1 | 113
N#Cc1c(-c2ccc(F)cc2)n2c(nc1=O)SC(=O)C2=O | 120
CCCCCCCCCCNCCSS(=O)(=O)O | 100

Moving on to another molecule below.
Query block: Tell me growth of COc1ccc([N+](=O)[O-])c(S(=O)(=O)c2ccc(Cl)cc2)n1 when tested on HOP-62 NSCLC.
Result block: 95.2

---

Tested on: ACHN renal
assay-summary: NCI-60 one-dose screen, 48 h (100 = growth as untreated, 0 = no growth, -100 = all killed)
measurement-conditions: 10 µM unless noted
About 83,000 compounds went through this panel and 20% of them were active in at least one assay; those are over-represented in the sample as a whole.
Quick rule for you: growth under 50% gets Satisfied, anything else gets Not satisfied.

COc1cc(/C=N/NC(=O)c2ccc(C(F)(F)F)nc2Nc2ccc(Cl)cc2C)ccc1O | Satisfied

Query block: Is the reported growth for COc1cc(C2=NN(C=O)C(c3cccc(Nc4ccnc5cc(Cl)ccc45)c3)C2)cc(OC)c1OC (stereo not given) strictly below 50%?
Result block: Not satisfied

Query block: Is the reported growth for O=C(/C=C/c1ccc([N+](=O)[O-])cc1)c1ccc2c3c(cccc13)CC2 strictly below 50%?
Result block: Not satisfied

Query block: Is the reported growth for Cc1sc2nc3c4ccccc4c(NCCCN(C)C)nn3c(=O)c2c1C strictly below 50%?
Result block: Not satisfied

Query block: Is the reported growth for Cc1nn(-c2ccccc2)c2nc(N)c(C3=NCCO3)nc12 strictly below 50%?
Result block: Not satisfied

---

Tested on: OVCAR-5 ovarian
assay-summary: NCI-60 one-dose screen, 48 h
measurement-conditions: 10 µM unless noted
This is part of a sample that, as a whole, favours compounds with a hit. Of some 83,000 tested, about 20% had one in any assay. Calls of active or inactive are those of the source. The calls were made as follows: active = growth percent below 10; inactive = the rest.
Outcomes you can answer with include only these: t for active, f for inactive

Cc1cc(-c2ccccc2)cc(C)n1 | f
Cc1nn(-c2ccccc2)cc1/C=C1\SC(N2CCCCC2)=NC1=O | f

Query block: Answer briefly: the call reported for CCOC(=O)C(C(=O)OCC)C1CCCCC1 in this assay.
Result block: f

Query block: Answer briefly: the call reported for O=C(/C=C/c1cccc(Nc2ccnc3cc(Cl)ccc23)c1)c1ccc(Cl)cc1 in this assay.
Result block: f

Query block: Answer briefly: the call reported for O=C(Nc1ccccc1S)c1ccccc1 in this assay.
Result block: f

Query block: Answer briefly: the call reported for COc1cc(NC(C)CCCN)c2nc(C)ccc2c1Oc1ccc(F)cc1 (stereo unspecified) in this assay.
Result block: f

Query block: Answer briefly: the call reported for COC(=O)[C@H](Cc1cn(C)cn1)NC(=O)[C@H](C)NC(=O)Nc1cc(C(F)(F)F)cc(C(F)(F)F)c1 in this assay.
Result block: t

---

Tested on: A498 renal
assay-summary: NCI-60 one-dose screen, 48 h (100 = growth as untreated, 0 = no growth, -100 = all killed)
measurement-conditions: 10 µM unless noted
The panel holds about 83,000 compounds, 20% with a hit somewhere; the sample as a whole holds those more often.
Entries are grouped by growth into these classes: low interval = under 50%, middle interval = from 50% up to 90%, high interval = 90% and over

Consider the worked cases shown below.
CCc1nn2c(-c3ccc(Cl)cc3C)c(-c3cc(OC)c(OC)c(OC)c3)nc2s1 | middle interval
C[C@]12CCC(=O)C=C1CCC1C2[C@@H](O)C[C@@]2(C)C1CC[C@]2(O)C(=O)COC(=O)CCC(=O)O (stereo partly drawn) | high interval
[N-]=[N+]=NCc1cccc(/C(O)=C/C(=O)C(=O)O)c1 | high interval
CC[N+](CCCCCCCCCC[N+](CC)(c1ccccn1)c1ccccn1)(c1ccccn1)c1ccccn1 | low interval

Query block: Lab log: COc1cc(-c2n[nH]nc2-c2ccccn2)cc(OC)c1OC — assign growth category
Result block: high interval

Query block: Lab log: COc1ccc(C(=O)COc2cccc(/C=C3\CSc4ccc(Cl)cc4C3=O)c2)cc1 — assign growth category
Result block: high interval

Query block: Lab log: Cc1ccc2nc3c(n2c1)C(=O)C(=O)c1ccccc1-3 — assign growth category
Result block: low interval

Query block: Lab log: Cc1cc(=O)oc2cc(OCCn3c(C)nn(-c4ccc(Cl)cc4)c3=O)ccc12 — assign growth category
Result block: low interval

Query block: Lab log: Cn1cc(NC(=O)Nc2cc(C(=O)O)n(C)c2)cc1C(=O)O — assign growth category
Result block: high interval

Query block: Lab log: Cc1nn(-c2ccccc2)cc1/C=C1\SC(N2CCCCC2)=NC1=O — assign growth category
Result block: middle interval

Query block: Lab log: O=C1/C(=C\c2coc3ccccc3c2=O)c2ccccc2N1c1c(Cl)cccc1Cl — assign growth category
Result block: low interval

---

Test system: A498 renal
assay-summary: NCI-60 one-dose screen, 48 h (100 = growth as untreated, 0 = no growth, -100 = all killed)
measurement-conditions: 10 µM unless noted
Compounds without any hit were thinned out: in the full panel of roughly 83,000, 20% have a hit. Activity calls are given as the source filed them. The calls were made as follows: active = growth percent below 10; inactive = the rest.
measurement-label: growth

Below: 2 compounds and their reported growth.
COc1ccc(OC)c2c1CCC1(C2)NC(=O)NC1=O (stereo not drawn) | 104% (inactive)
[N-]=[N+]=NCc1ncc(-c2ccc(C(F)(F)F)cc2)c(NC2CCCCCC2)n1 | 82.5% [50 µM] (inactive)

Query block: Tell me growth of CCSCC1CC(O)(c2ccccc2)C(c2ccccc2)C(c2ccc(Cl)cc2)O1 (stereo not drawn) when tested on A498 renal.
Result block: -13.3% (active)

Query block: Tell me growth of COc1ccc(C(=O)/C=C/c2ccc(C)cc2)cc1OC when tested on A498 renal.
Result block: 80.7% (inactive)

Query block: Tell me growth of Cn1cnc([N+](=O)[O-])c1Sc1nc(N)nc2nc[nH]c12 when tested on A498 renal.
Result block: 43.6% (inactive)

Query block: Tell me growth of C/C(=C\CCc1ccoc1)CC/C=C(\C)CCCNc1ccc(F)cc1 when tested on A498 renal.
Result block: 79.7% (inactive)

---

System: NCI/ADR-RES ovarian
assay-summary: NCI-60 one-dose screen, 48 h (100 = growth as untreated, 0 = no growth, -100 = all killed)
measurement-conditions: 10 µM unless noted
Method: Growth inhibition of the NCI/ADR-RES human […] tumor cell line is measured as a screen for anti-cancer activity. Cells are grown in 96 well plates and exposed to the test compound for 48 hours. Compounds are tested at a single concentration, which is 10^-5 M for most compounds. The reported endpoint is percent growth (GI% or GIPRCNT), where numbers from 0 - 100% represent growth inhibition, and numbers from -100% - 0 represent cell death. For example, a value of 40 represents 60% growth inhibition. […]
This is part of a sample that, as a whole, favours compounds with a hit. Of some 83,000 tested, about 20% had one in any assay. Activity calls are given as the source filed them. The calls were made as follows: active = growth percent below 10; inactive = the rest.
measurement-label: growth

Below: 4 compounds and their reported growth.
Cc1nn(-c2nc3ccccc3s2)c(C)c1Oc1ccccc1O | 101% (inactive)
Nc1nc(Nc2ccccc2SSc2ccccc2Nc2nc(N)nc(-c3ccc(I)cc3)n2)nc(-c2ccc(I)cc2)n1 | 49.6% (inactive)
Cc1cc(Br)c(C)cc1Br | 112% (inactive)
CC(=O)[C@H]1CC[C@H]2[C@@H]3C[C@H](C)C4=CC(=O)CC[C@]4(C)[C@H]3C(=O)C[C@]12C | 98.7% (inactive)

Moving on to another compound below.
Query block: Please give the documented growth of COC(=O)c1cc2oc(/C=N\NC(=O)c3cc4oc(C)c(C)c4[nH]3)cc2[nH]1
Result block: 102% (inactive)
